Tested on: pigweed
Experiment: Test B pre-/postemergence herbicide test
Format: in vivo, Amaranthus retroflexus
Details: postemergence, 125 g ai/ha; scale 0 to 100
Catalogue of Pigweed plant response rating values

Smi: C=CCNC(=O)c1cccc(NC(=O)c2nn(C(C)(C)C)nc2CC)c1
Pigweed plant response rating: 90
//
Smi: CCOC(=O)c1cncc(NC(=O)c2nn(C(C)(C)C)nc2C)c1
Pigweed plant response rating: 0
//
Smi: CCNC(=O)c1cncc(NC(=O)c2nn(C(C)(C)C)nc2C)c1
Pigweed plant response rating: 20
//
Smi: CC(C)(C)n1nc(Br)c(C(=O)Nc2cccc(C(=O)NC3CC3)c2)n1
Pigweed plant response rating: 40
//
Smi: Cc1nn(C(C)(C)C)nc1C(=O)Nc1cc(C(=O)N(C)C)ccn1
Pigweed plant response rating: 40
//
Smi: CCc1nn(C(C)C)nc1C(=S)Nc1cccc(C(=S)N(C)C)c1
Pigweed plant response rating: 0
//
Smi: CCOC(=O)c1cccc(NC(=O)c2nn(C(C)(C)C)nc2Br)c1
Pigweed plant response rating: 0
